Tested on: MS2 coat protein
ASSAY_METHOD_TEXT: apparent KD of MS2 coat protein; designed switch direction (-1 OFF switch, 1 ON switch): 1; higher = weaker reporter binding
PARTICULARS: input ligand: none
Reported apparent KD of MS2 coat protein values for a set of sequences
Only the number, expressed in nM, is required.

Worked cases, apparent KD of MS2 coat protein given:
>  <PRIMARY_SEQUENCE>
AACAUACAUGAGGAUCACCCAUGUUCCGGCAGGACAGGAUAUACAUCGAAAGUGUUAUAAGUAGAAGGGUCAUAAA [JR_SS001_Sub012] (Eterna round: R96, puzzle: Same State 1)

>  <ASSAYED_SYSTEM>
MS2 coat protein

>  <ASSAY_ENDPOINT>
apparent KD of MS2 coat protein

>  <REPORTED>
79.8

$$$$
>  <PRIMARY_SEQUENCE>
AGAUCAUGACGAGGAUAUGGUACAUGAGGAUCACCCAUGUAUGUACCACGACGCGUACGUCGAAUCCAGAAGGCGUCGUGGUCA [JL SSNG2 1.07] (Eterna round: R96, puzzle: Same State NG 2)

>  <ASSAYED_SYSTEM>
MS2 coat protein

>  <ASSAY_ENDPOINT>
apparent KD of MS2 coat protein

>  <REPORTED>
41.6

$$$$
>  <PRIMARY_SEQUENCE>
GUUACAUGAGGAUCACCCAUGUAUGUGUGGGAGUAAGUGUCUUAGGAUAUCUAGUAUUAAAUUUAAGAGAAGGAAGAUUGUUGU [JMF's solution 57] (Eterna round: R96, puzzle: Same State NG 3)

>  <ASSAYED_SYSTEM>
MS2 coat protein

>  <ASSAY_ENDPOINT>
apparent KD of MS2 coat protein

>  <REPORTED>
110

$$$$
>  <PRIMARY_SEQUENCE>
GGCCUCUGUCAAGGAUAUGCUACCGUUUCGGUAGCAGAAGGUGAUCACAUGCGGGUCACCCAUGUUUAGGCCCUCUGGCCCGCC (Eterna round: R96, puzzle: Same State NG 1)

>  <ASSAYED_SYSTEM>
MS2 coat protein

>  <ASSAY_ENDPOINT>
apparent KD of MS2 coat protein

>  <REPORTED>
18.6

$$$$

Next sequence, please.
Param readout = apparent KD of MS2 coat protein; param system = MS2 coat protein; param query = GGUGGGUUGCUGCCGGCACAUGAGGAUCACCCAUGUUUUGGGAAGGAUAUGGUACCUCUUUGGUGCCAGAAGGUCCCGUUGGUG [salish99_SSNG3_r04_713] (Eterna round: R96, puzzle: Same State NG 3) ; response: value
1740

====

Let's look at some sequences and their measured apparent KD of MS2 coat protein.
Test system: MS2 coat protein
ASSAY_METHOD_TEXT: apparent KD of MS2 coat protein; designed switch direction (-1 OFF switch, 1 ON switch): -1; higher = weaker reporter binding
PARTICULARS: input ligand: FMN 200 uM
Respond with the bare value in nM.

>  <PRIMARY_SEQUENCE>
GCCUUAUCUGUCAGGAUAUACAAUAAAAUAACUUUGUAGAAGGGACAUGAGGAUCACCCAUGUACAUUACAUUG [alecazam24b] (Eterna round: R97, puzzle: Brourd's mod of Exclusion 4)

>  <UNIT_TEXT>
nM

>  <apparent KD of MS2 coat protein>
63.1

$$$$

apparent KD of MS2 coat protein for UUUUUACAUGAGGAUCACCCAUGUGAGGAUAUGGAGCGCGACCGCGCGGUCGCGUACACCAGAAGGCGCAGGAA [1st #75] (Eterna round: R97, puzzle: Exclusion 1) ?
30.6

Which apparent KD of MS2 coat protein value is on record for GACUUCUCUGAGGAUAUUGCAUCAUACGAUAAAUAAGAAGGCAGAACAUGAGGAUCACCCAUGUGGGUUUUUAG [Bingo-Bango-32] (Eterna round: R97, puzzle: Exclusion 6) ?
135
